- Target entity: EGFR (Homo sapiens (Human))
- Sequence (P00533 25-1210): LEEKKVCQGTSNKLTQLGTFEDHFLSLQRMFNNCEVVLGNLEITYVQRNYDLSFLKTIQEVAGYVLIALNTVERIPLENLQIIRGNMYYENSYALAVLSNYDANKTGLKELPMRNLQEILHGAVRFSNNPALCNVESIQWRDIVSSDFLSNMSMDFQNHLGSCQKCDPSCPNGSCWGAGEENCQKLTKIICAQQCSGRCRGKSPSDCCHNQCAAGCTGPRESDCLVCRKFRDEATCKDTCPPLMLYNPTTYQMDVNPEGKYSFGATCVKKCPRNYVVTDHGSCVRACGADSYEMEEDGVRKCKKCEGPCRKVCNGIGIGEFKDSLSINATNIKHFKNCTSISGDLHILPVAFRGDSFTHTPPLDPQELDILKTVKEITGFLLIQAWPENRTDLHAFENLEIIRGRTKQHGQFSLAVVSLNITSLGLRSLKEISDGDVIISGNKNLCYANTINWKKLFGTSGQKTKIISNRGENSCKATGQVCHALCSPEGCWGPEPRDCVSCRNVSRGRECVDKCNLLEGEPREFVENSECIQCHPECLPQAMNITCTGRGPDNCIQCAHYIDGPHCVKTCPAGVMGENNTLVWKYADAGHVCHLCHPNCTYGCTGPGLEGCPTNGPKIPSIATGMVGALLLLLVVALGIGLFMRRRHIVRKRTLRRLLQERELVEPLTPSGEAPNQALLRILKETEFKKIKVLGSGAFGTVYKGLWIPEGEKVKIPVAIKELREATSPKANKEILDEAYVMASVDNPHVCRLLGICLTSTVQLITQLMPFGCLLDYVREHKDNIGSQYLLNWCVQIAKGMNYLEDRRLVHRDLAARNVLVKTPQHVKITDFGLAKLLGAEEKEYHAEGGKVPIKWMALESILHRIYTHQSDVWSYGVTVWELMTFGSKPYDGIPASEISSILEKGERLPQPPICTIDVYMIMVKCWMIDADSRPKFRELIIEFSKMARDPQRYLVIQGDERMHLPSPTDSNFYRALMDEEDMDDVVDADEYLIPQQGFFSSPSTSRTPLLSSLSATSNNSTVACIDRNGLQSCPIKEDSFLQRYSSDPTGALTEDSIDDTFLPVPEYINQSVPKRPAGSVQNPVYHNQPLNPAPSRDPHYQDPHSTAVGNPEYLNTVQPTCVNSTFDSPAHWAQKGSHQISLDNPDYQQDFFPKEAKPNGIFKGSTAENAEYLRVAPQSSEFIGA
- Procedure details: In vitro kinase activity assay with EGFR
- Assay type: biochemical
Parameter: IC50 (µM)
Report the value in µM with no unit label.

Q: Write down IC50 measured for item `Nc1ncnc2c1c(-c1ccc(Oc3ccccc3)cc1)nn2[C@@H]1CCCN(C(=O)COS(=O)(=O)Nc2ccccc2)C1`
Ans: 1.96

Q: Write down IC50 measured for item `CNS(=O)(=O)OCC(=O)N1CCC[C@@H](n2nc(-c3ccc(Oc4ccccc4)cc3)c3c(N)ncnc32)C1`
Ans: 0.241

Q: Write down IC50 measured for item `Nc1ncnc2c1c(-c1ccc(Oc3ccccc3)cc1)nn2[C@@H]1CCCN(C(=O)COS(=O)(=O)NCc2ccccc2)C1`
Ans: 0.533

----------
The compounds listed here are annotated with their IC50.
- Target entity: BTK C481S mutant (Homo sapiens (Human), UniProt Q06187, C481S)
- Sequence (Q06187 whole entry C481S, looked up): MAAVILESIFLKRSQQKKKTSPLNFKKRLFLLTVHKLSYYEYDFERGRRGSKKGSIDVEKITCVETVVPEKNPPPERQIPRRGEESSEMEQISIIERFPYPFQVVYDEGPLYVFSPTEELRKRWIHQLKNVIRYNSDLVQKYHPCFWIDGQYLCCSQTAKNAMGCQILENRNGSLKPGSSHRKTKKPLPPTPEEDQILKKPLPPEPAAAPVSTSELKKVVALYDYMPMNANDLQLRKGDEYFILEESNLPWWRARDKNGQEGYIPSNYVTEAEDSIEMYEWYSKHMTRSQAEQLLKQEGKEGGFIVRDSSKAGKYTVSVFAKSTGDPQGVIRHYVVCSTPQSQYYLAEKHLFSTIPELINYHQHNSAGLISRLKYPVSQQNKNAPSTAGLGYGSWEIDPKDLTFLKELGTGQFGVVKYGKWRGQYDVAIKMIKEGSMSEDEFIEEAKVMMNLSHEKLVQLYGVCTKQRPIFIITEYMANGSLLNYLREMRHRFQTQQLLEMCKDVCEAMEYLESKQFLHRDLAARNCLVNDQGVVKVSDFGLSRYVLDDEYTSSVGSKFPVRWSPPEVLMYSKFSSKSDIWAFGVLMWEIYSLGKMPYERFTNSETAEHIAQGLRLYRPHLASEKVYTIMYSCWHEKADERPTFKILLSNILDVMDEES
- Procedure details: In vitro kinase activity assay with BTK C481S mutant
- Assay type: biochemical
- Condition parameters: BTK C481S mutant; read-out: C481S (IC50 μM)
Report the value in µM with no unit label.

Nc1ncnc2c1c(-c1ccc(Oc3ccccc3)cc1)nn2[C@@H]1CCCN(C(=O)COS(=O)(=O)Nc2ccccc2)C1: 0.275

Now for another entry.
Q: Write down IC50 measured for item `Nc1ncnc2c1c(-c1ccc(Oc3ccccc3)cc1)nn2[C@@H]1CCCN(C(=O)COS(=O)(=O)NCc2ccccc2)C1`
Ans: 1.28

----------
- Target entity: BTK (Homo sapiens (Human))
- Sequence (Q06187 whole entry, looked up): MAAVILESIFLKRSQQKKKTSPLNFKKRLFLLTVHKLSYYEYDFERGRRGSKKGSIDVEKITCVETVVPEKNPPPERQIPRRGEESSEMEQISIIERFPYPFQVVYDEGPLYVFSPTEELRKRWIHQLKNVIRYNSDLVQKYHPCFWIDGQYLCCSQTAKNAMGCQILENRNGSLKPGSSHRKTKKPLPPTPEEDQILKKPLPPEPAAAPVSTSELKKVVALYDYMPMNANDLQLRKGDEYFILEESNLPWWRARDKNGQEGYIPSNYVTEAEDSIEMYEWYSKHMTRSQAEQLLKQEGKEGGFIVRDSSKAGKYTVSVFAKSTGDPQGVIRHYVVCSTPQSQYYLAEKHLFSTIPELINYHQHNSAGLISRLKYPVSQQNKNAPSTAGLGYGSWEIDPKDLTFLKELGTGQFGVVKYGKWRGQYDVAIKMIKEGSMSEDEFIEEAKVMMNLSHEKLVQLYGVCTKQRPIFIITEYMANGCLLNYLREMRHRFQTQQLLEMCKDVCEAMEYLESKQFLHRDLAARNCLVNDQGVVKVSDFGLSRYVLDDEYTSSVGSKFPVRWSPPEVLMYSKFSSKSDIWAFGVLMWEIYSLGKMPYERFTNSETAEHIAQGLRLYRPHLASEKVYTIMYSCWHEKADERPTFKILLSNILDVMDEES
- Procedure details: In vitro kinase activity assay
- Format: biochemical
- Condition parameters: read-out: IC50 against BTK
pIC50: −log10 of the molar value.
The compounds listed here are annotated with their pIC50.

Completed entries (count: 2):
Nc1ncnc2c1c(-c1ccc(Oc3ccccc3)cc1)nn2[C@@H]1CCCN(C(=O)COS(=O)(=O)Nc2ccccc2)C1 [Compound 3e]: 7.00
CNS(=O)(=O)OCC(=O)N1CCC[C@@H](n2nc(-c3ccc(Oc4ccccc4)cc3)c3c(N)ncnc32)C1 [Compound 3c]: ~8.00

Now for another entry.
Q: Write down pIC50 measured for item Nc1ncnc2c1c(-c1ccc(Oc3ccccc3)cc1)nn2[C@@H]1CCCN(C(=O)COS(=O)(=O)NCc2ccccc2)C1 [Compound 3d]
Ans: ~8.00

----------
- Target entity: BTK C481S mutant (Homo sapiens (Human), UniProt Q06187, C481S)
- Procedure details: In vitro kinase activity assay with BTK C481S mutant
- Assay type: biochemical
Parameter: IC50
Report as: number unit

Q: Write down IC50 measured for item CNS(=O)(=O)OCC(=O)N1CCC[C@@H](n2nc(-c3ccc(Oc4ccccc4)cc3)c3c(N)ncnc32)C1 [Compound 3c]
Ans: 0.74 µM

----------
- Target entity: UniProt:Q06187
- Procedure details: BTK activity (autophosphorylation) in Mino cells
- Type: cell-based
- Condition parameters: anti-IgM activation, read-out: IC50 of BTK autophosphorylation inhibition
Parameter: IC50 (nM)
Report the value in nM with no unit label.

CS(=O)(=O)OCC(=O)N1CCC[C@@H](n2nc(-c3ccc(Oc4ccccc4)cc3)c3c(N)ncnc32)C1: 6

Q: Write down IC50 measured for item `CNS(=O)(=O)OCC(=O)N1CCC[C@@H](n2nc(-c3ccc(Oc4ccccc4)cc3)c3c(N)ncnc32)C1`
Ans: 3.6
